From: patent US9328112B2

Hi there, I'd appreciate the recorded IC50 for every entry that follows.
test_target: CDK9/Cyclin T1 (Homo sapiens (Human))
run_description: CDK9 enzyme assay (LANCE ULight TR-FRET kinase assay)
cond: 1000 μM ATP, 100 nM ULight MBP, kinase reaction 1 hour
Description: CDK9 enzyme activities were measured using LANCE ULight TR-FRET kinase assay reagents (PerkinElmer, Waltham, Mass.). Compounds were diluted in 100% DMSO then diluted with 1:10 in serine/threonine kinase assay buffer containing 20 mM HEPES, 10 mM MgCl2, […], and 0.0075% Triton X-100. […] The reaction was incubated for 1 hour and the signal was read in Envision in TR-FRET mode (excitation at 320 nm and emission at 615/665 nm).

For CN1Cc2c(C3=CCN(CC(=O)N(CCO)CCO)CC3)[nH]c3nccc(c23)-c2cc(F)ccc21 , what is its reported IC50?
0.057 µM

For CNS(=O)(=O)CC(=O)N1CC=C(c2[nH]c3nccc4c3c2CN(C)c2ccc(F)cc2-4)CC1 , what is its reported IC50?
0.022 µM

For CNC(=O)N1CCC=C(c2[nH]c3nccc4c3c2CN(C)c2ccc(F)cc2-4)C1 , what is its reported IC50?
0.18 µM

For CN1Cc2c(C3=C[C@@H]4COC(=O)N4CC3)[nH]c3nccc(c23)-c2cc(F)c(F)cc21 , what is its reported IC50?
0.054 µM

For CN1Cc2c(C3=CC4CN(CC(=O)N(C)C5CC(O)C5)CC4C3)[nH]c3nccc(c23)-c2cc(F)ccc21 (centres unmarked) , what is its reported IC50?
0.1 µM

For CN1Cc2c(C3=CCN([C@H]4CC[C@@H](CC(=O)O)CC4)CC3)[nH]c3nccc(c23)-c2cc(F)c(F)cc21 , what is its reported IC50?
0.058 µM

For CN1Cc2c(C3=CCCNCC3)[nH]c3nccc(c23)-c2cc(F)ccc21 , what is its reported IC50?
0.09 µM

For CN1Cc2c(C3=CCN(S(C)(=O)=O)CC3)[nH]c3nccc(c23)-c2cccnc21 , what is its reported IC50?
0.069 µM

----------
test_target: CDK9/Cyclin T1 (Homo sapiens (Human), UniProt P50750)
Sequence (P50750 whole entry): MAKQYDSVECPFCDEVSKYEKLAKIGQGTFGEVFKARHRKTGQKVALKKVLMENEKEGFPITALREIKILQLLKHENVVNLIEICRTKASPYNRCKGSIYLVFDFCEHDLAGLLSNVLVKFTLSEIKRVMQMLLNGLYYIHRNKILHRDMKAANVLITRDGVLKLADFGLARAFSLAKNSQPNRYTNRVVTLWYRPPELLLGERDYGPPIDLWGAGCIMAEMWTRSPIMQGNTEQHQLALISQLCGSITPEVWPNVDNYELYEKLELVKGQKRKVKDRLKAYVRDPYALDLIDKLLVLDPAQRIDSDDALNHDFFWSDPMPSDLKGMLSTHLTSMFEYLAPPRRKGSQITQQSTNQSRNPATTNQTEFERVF
Sequence (O60563 whole entry partner): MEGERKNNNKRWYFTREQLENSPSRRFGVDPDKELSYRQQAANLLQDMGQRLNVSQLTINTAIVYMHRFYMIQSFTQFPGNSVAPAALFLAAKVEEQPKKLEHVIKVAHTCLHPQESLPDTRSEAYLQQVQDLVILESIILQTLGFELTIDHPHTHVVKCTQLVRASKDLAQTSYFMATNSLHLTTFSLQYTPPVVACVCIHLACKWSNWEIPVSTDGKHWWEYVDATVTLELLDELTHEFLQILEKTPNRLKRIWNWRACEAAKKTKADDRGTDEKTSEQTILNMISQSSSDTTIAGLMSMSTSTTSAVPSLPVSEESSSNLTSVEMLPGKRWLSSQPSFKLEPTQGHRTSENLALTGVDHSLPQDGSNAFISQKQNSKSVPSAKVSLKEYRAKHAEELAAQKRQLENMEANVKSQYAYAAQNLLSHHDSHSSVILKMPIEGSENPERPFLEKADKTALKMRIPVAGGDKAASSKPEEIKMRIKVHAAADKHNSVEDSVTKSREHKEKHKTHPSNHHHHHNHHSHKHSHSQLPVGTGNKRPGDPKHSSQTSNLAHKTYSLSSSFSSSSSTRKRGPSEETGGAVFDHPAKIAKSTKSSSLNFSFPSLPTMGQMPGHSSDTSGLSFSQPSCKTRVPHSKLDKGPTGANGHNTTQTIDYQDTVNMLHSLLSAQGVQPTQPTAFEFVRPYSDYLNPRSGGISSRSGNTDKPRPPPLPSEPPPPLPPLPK
run_description: CDK9 enzyme assay (LANCE ULight TR-FRET kinase assay)
cond: 1000 μM ATP, 100 nM ULight MBP, kinase reaction 1 hour
Hi there, I'd appreciate the recorded pIC50 for every entry that follows.
Remember, pIC50 is on a log scale: it is -log10 of the molar concentration.

For CN1Cc2c(C3=CCN(CC(=O)N4CCC[C@H]4CO)CC3)[nH]c3nccc(c23)-c2cc(F)ccc21 , what is its reported pIC50?
7.15

For CN1Cc2c(C3=CCCN(CC(=O)N(C)C4CC(O)C4)C3)[nH]c3nccc(c23)-c2cc(F)ccc21 (stereo not shown) , what is its reported pIC50?
6.38

For COC(=O)C[C@H]1CC[C@H](N2CC=C(c3[nH]c4nccc5c4c3CN(C)c3cc(F)c(F)cc3-5)CC2)CC1 , what is its reported pIC50?
7.24

For CN1Cc2c(C3=C[C@H]4CC[C@@H](C3)N4S(C)(=O)=O)[nH]c3nccc(c23)-c2cc(F)ccc21 , what is its reported pIC50?
7.02
